TARGET DESC: GABA A receptor α5β3γ2 (hα5) (Homo sapiens, UniProt P18507+P31644)
Construct: expressed in transfected cells; host or cells: HEK293, transiently transfected; membranes
ASSAY COMMENT: [3H]flumazenil competition binding, membranes of HEK293 cells expressing human GABA A α5β3γ2
READOUT: Ki (nM)
Quick reminder: number only, in nM, skip the unit.

[in] So what does the record say about Ki for Cc1ncn2c1Cn1nc(Cc3ccncc3)nc1-c1cc(Br)ccc1-2 ?
[out] 0.5

[in] So what does the record say about Ki for Cc1ncn2c1Cn1nc(Cn3ncccc3=O)nc1-c1cc(Br)ccc1-2 ?
[out] 0.7

[in] So what does the record say about Ki for O=C1OCCN1Cc1nc2n(n1)Cc1c(Cl)ncn1-c1ccc(Cl)cc1-2 ?
[out] 0.9
